Read-out: CD40, CD40 (gene 958)
Experiment: BSK_SAg_CD40: BioMAP Diversity Plus: SAg Assay for CD40 Biomarker Activity (AID 2283088)
Conditions: primary human HUVEC with PBMC; actives raise or lower the signal
The source made the active and inactive calls. Rule for the calls: active = hit-call score of the fitted dose curve at least 0.9, where 1 is the maximum; inactive = score below 0.9.
Use one of these outcomes when replying: active, inactive

Which result was noted for this compound in the test: `OC[C@H]1O[C@H](O[C@]2(CCl)O[C@H](CCl)[C@@H](O)[C@@H]2O)[C@H](O)[C@@H](O)[C@H]1Cl`
inactive

Try `Cc1ccc(Nc2ccc(O)c3c2C(=O)c2ccccc2C3=O)cc1` next.
inactive

Try `CC(=O)O[C@]1(C(C)=O)CC[C@H]2[C@@H]3C[C@H](C)C4=CC(=O)CC[C@]4(C)[C@H]3CC[C@@]21C` next.
inactive

Try `O=C1OC2(c3cc(Br)c(O)c(Br)c3Oc3c2cc(Br)c(O)c3Br)c2c(Cl)c(Cl)c(Cl)c(Cl)c21` next.
active

Try BrC1CCC(Br)C(Br)CCC(Br)C(Br)CCC1Br (stereo not given) next.
active

Try O=C=NC1CCC(CC2CCC(N=C=O)CC2)CC1 (stereo not given) next.
inactive

Try `CC(C)(COC(=O)c1ccccc1)COC(=O)c1ccccc1` next.
active

Try `COc1cc(C=O)ccc1OC(=O)C(C)C` next.
inactive

Try `CC[Si](OC(C)=O)(OC(C)=O)OC(C)=O` next.
inactive

Try `c1ccc2c(c1)c1cccc3ccc4cccc2c4c31` next.
inactive

Try `O=C1CCCCCCCCCCCCCCO1` next.
inactive

Try `CCC(=O)OCc1ccccc1` next.
inactive

Try `NCCNCCN` next.
inactive

Try `CC(C)c1ccc(C(C)C)cc1` next.
inactive

Try CCCCC(CC)COC(=O)/C=C\C(=O)OCC(CC)CCCC (stereo not given) next.
inactive

Try `CC(=O)Nc1ccccc1O` next.
inactive

Try `Cc1ccc(O)c(C(C)(C)C)c1` next.
active

Try `COC(=O)c1ccc(C)cc1` next.
inactive

Try `O=C(O)C[C@H](O)C[C@H](O)/C=C/c1c(C2CC2)nc2ccccc2c1-c1ccc(F)cc1` next.
active

Try `O=C(O)c1cn(C2CC2)c2cc(N3CCNCC3)c(F)cc2c1=O` next.
inactive

Try `CNC[C@H](O)c1cccc(O)c1` next.
inactive

Try `C=CCOC(=O)CCC1CCCCC1` next.
inactive

Try `c1ccc2sc(SN(C3CCCCC3)C3CCCCC3)nc2c1` next.
active

Try `O=[N+]([O-])c1cc(C(F)(F)F)ccc1Cl` next.
inactive

Try `C=C(C)C(=O)O[C@H]1C[C@@H]2CC[C@@]1(C)C2(C)C` next.
active

Try `N#Cc1ccc(CC(=NNC(=O)Nc2ccc(OC(F)(F)F)cc2)c2cccc(C(F)(F)F)c2)cc1` next.
inactive

Try OC1OC[C@@H](O)[C@H](O)[C@H]1O (stereo not given in full) next.
inactive

Try `CCn1c2ccccc2c2cc(N)ccc21` next.
active

Try CN(CCOc1ccc(CC2SC(=O)NC2=O)cc1)c1ccccn1 (stereo not given) next.
active

Try CC1COc2ccccc2N1C(=O)C(Cl)Cl (stereo not given) next.
active

Try `CC(=O)/C=C/C1=C(C)CCCC1(C)C` next.
inactive

Try `CCc1c(C)cc(N)c(CC)c1N` next.
inactive

Try `O=C(O)c1ccc([N+](=O)[O-])cc1` next.
inactive

Try `Cc1cc(C2(c3cc(C)c(O)cc3C)OS(=O)(=O)c3ccccc32)c(C)cc1O` next.
inactive

Try `O=P(c1ccccc1)(c1ccccc1)c1ccccc1` next.
inactive

====

Assay: ATG_XTT_Cytotoxicity: Cytotoxicity Assessment in the Attagene TRANS-FACTORIAL HepG2 Assay (AID 2283584)
Results filed as inconclusive are left out. The source made the active and inactive calls. The calls were made as follows: active = hit-call score of the fitted dose curve at least 0.9, where 1 is the maximum; inconclusive = response in the unintended direction; inactive = score below 0.9.
Use one of these outcomes when replying: yes (1) (active), no (0) (inactive)

Which result was noted for this compound in the test: `CNCCCC12CCC(c3ccccc31)c1ccccc12`
no (0)

Try `Nc1nc2ccc([N+](=O)[O-])cc2s1` next.
no (0)

Try `O=c1[nH]c(=O)n([C@H]2CCCO2)cc1F` next.
no (0)

Try BrC1CCC(Br)C(Br)CCC(Br)C(Br)CCC1Br (stereo unspecified) next.
no (0)

Try `NCCCN1CCOCC1` next.
no (0)

Try `CCCCCCCCCCN` next.
no (0)

Try `CSc1nnc(C(C)(C)C)c(=O)[nH]1` next.
no (0)

Try `CNC(=O)Oc1ccc2c(c1)[C@]1(C)CCN(C)[C@@H]1N2C` next.
no (0)

Try `COC(=O)OC` next.
no (0)

Try `N#Cc1ccc(CC(=NNC(=O)Nc2ccc(OC(F)(F)F)cc2)c2cccc(C(F)(F)F)c2)cc1` next.
no (0)

Try CC(CN1c2ccccc2Sc2ccccc21)N(C)C (stereo unspecified) next.
no (0)

Try `CCC/C=C/C=O` next.
no (0)

Try CC(CC(C)(C)C)CC(C)(C)CC(C)(C)C (stereo unspecified) next.
no (0)

Try `CC1(C)OC[C@@H]2O[C@@]3(C(=O)O)OC(C)(C)O[C@H]3[C@@H]2O1` next.
no (0)

Try `C[Si](O[Si](C)(C)C)O[Si](C)(C)C` next.
no (0)

Try `O=C1CCc2ccccc2O1` next.
no (0)

Try `CC(C)(C)C(=O)c1ccccc1` next.
no (0)

Try `O=C1CCCCCCCCCCOCCCCO1` next.
no (0)

Try `Cc1ncc([N+](=O)[O-])n1C` next.
no (0)

Try `CCc1c(C)cc(N)c(CC)c1N` next.
no (0)

Try `O=C(O)Cc1cccc2ccccc12` next.
no (0)

Try `CCCCCCCCCC=O` next.
no (0)

Try `CCCc1ccccc1O` next.
no (0)

Try `OCCOc1cccc(OCCO)c1` next.
no (0)

Try `N#Cc1nc(Cl)c(Cl)c(Cl)c1Cl` next.
yes (1)

Try `CC1(C)C(=O)N(Br)C(=O)N1Cl` next.
no (0)

Try `CC(=O)[C@H]1CC[C@H]2[C@@H]3CC=C4C[C@@H](O)CC[C@]4(C)[C@H]3CC[C@]12C` next.
no (0)

Try `CCCCCCCCCCCCCOS(=O)(=O)O` next.
yes (1)

Try `C=C(C)C(=O)OCCOC(=O)CC(C)=O` next.
no (0)

Try `C=C(C)C(=O)Nc1ccc(Cl)c(Cl)c1` next.
no (0)

Try `CCCCC[Si](OCC)(OCC)OCC` next.
no (0)

====

Read-out: Intercellular Adhesion Molecule 1 (ICAM1), ICAM1 (gene 3383)
Experiment: BSK_KF3CT_ICAM1: BioMAP Diversity Plus: KF3CT Assay for Intercellular Adhesion Molecule 1 (ICAM1) Biomarker Activity (AID 2283067)
Settings: primary human keratinocytes with fibroblasts; actives raise or lower the signal
Description: BSK_KF3CT is a cell-based, multiplexed-readout assay that uses keratinocytes and foreskin fibroblasts, a human skin primary cell co-culture, with measurements taken at 24 hours after chemical dosing in a 96-well plate.BSK_KF3CT_ICAM1 is an assay component measured in the BSK_KF3CT assay. It measures ICAM-1 antibody related to regulation of gene expression using ELISA technology.Data from the assay component BSK_KF3CT_ICAM1 was analyzed into 1 assay endpoint. […]
Calls of active or inactive are those of the source. Rule for the calls: active = hit-call score of the fitted dose curve at least 0.9, where 1 is the maximum; inactive = score below 0.9.
Use one of these outcomes when replying: Y (active), N (inactive)

Which result was noted for this compound in the test: `CCc1c(C)cc(N)c(CC)c1N`
N

Try `O=C(O)c1ccc([N+](=O)[O-])cc1` next.
N

Try `c1ccc2c(c1)c1cccc3ccc4cccc2c4c31` next.
N

Try CC(=O)OCCC(C)CC(C)(C)C (stereo unspecified) next.
N

Try `CCn1c2ccccc2c2cc(N)ccc21` next.
N

Try CCCCC(CC)COCCC#N (stereo unspecified) next.
N

Try `Nc1cc([N+](=O)[O-])ccc1Cl` next.
N

Try `O=C1OC2(c3cc(Br)c(O)c(Br)c3Oc3c2cc(Br)c(O)c3Br)c2c(Cl)c(Cl)c(Cl)c(Cl)c21` next.
Y

Try `O=P(c1ccccc1)(c1ccccc1)c1ccccc1` next.
N

Try CC1CCC(C(C)CS)CC1S (stereo unspecified) next.
Y

Try `O=C(O)c1cn(C2CC2)c2cc(N3CCNCC3)c(F)cc2c1=O` next.
N

Try `CCCCCCCCCC=O` next.
N

Try BrC1CCC(Br)C(Br)CCC(Br)C(Br)CCC1Br (stereo unspecified) next.
N

Try `C=C[Si](OCC)(OCC)OCC` next.
N

Try `CCCCC/C=C/C=C/C=O` next.
Y

Try `c1ccc2sc(SN(C3CCCCC3)C3CCCCC3)nc2c1` next.
N

Try `CC(=O)Nc1ccccc1O` next.
N

Try `CC(C)(COC(=O)c1ccccc1)COC(=O)c1ccccc1` next.
N

Try `Cc1ccc(Nc2ccc(O)c3c2C(=O)c2ccccc2C3=O)cc1` next.
N

Try CCCCC(CC)COC(=O)/C=C\C(=O)OCC(CC)CCCC (stereo unspecified) next.
N

Try `OC[C@H]1O[C@H](O[C@]2(CCl)O[C@H](CCl)[C@@H](O)[C@@H]2O)[C@H](O)[C@@H](O)[C@H]1Cl` next.
N

Try `CCC(=O)OCc1ccccc1` next.
N

Try `C[C@H]1C[C@@H]2[C@H]([C@@H](O)C[C@@]3(C)[C@H]2CC[C@]3(O)C(=O)CO)[C@@]2(C)C=CC(=O)C=C12` next.
N

Try `COc1cc(C=O)ccc1OC(=O)C(C)C` next.
N

Try `NCCNCCN` next.
N

Try `CC(C)c1ccc(C(C)C)cc1` next.
N

Try CN(CCOc1ccc(CC2SC(=O)NC2=O)cc1)c1ccccn1 (stereo unspecified) next.
N

Try `N#Cc1ccc(CC(=NNC(=O)Nc2ccc(OC(F)(F)F)cc2)c2cccc(C(F)(F)F)c2)cc1` next.
N

Try `CC[Si](OC(C)=O)(OC(C)=O)OC(C)=O` next.
N

Try O=C=NC1CCC(CC2CCC(N=C=O)CC2)CC1 (stereo unspecified) next.
N

Try `COC(=O)c1ccc(C)cc1` next.
N
